Source: ChEMBL document CHEMBL1148329

tgt: Alpha-1A adrenergic receptor (Oryctolagus cuniculus) (UniProt O02824)
Sequence (whole entry): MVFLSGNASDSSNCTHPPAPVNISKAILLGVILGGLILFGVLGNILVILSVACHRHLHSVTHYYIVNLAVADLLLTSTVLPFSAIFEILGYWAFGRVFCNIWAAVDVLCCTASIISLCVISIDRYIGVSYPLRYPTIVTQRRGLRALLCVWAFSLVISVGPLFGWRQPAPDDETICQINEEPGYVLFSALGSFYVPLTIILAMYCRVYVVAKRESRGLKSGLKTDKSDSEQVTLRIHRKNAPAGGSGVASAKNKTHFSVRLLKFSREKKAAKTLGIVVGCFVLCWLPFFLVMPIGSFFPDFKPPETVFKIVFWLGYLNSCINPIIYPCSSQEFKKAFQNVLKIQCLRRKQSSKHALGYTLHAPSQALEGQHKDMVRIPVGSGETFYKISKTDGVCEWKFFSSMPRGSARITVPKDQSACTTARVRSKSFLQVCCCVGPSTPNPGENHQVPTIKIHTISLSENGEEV
assay-procedure: Functional agonism of the compounds to constrict tissue containing the alpha-1A adrenergic receptor in rabbit urethra
Type: tissue-based
Here the recorded pD2 is given for each entry.

{"compound": "CC(c1cccc(NS(C)(=O)=O)c1)c1c[nH]cn1 (stereo unspecified)", "tgt": "Alpha-1A adrenergic receptor (Oryctolagus cuniculus) (UniProt O02824)", "pD2": 5.38}
{"compound": "COc1ccc(NS(C)(=O)=O)c2c1C(c1c[nH]cn1)CCC2 (stereo unspecified)", "tgt": "Alpha-1A adrenergic receptor (Oryctolagus cuniculus) (UniProt O02824)", "pD2": 4.81}
{"compound": "CS(=O)(=O)Nc1ccc(O)c2c1CCCC2c1c[nH]cn1 (stereo unspecified)", "tgt": "Alpha-1A adrenergic receptor (Oryctolagus cuniculus) (UniProt O02824)", "pD2": 4.61}
{"compound": "CN(c1cccc2c1CCCC2c1c[nH]cn1)S(C)(=O)=O (stereo unspecified)", "tgt": "Alpha-1A adrenergic receptor (Oryctolagus cuniculus) (UniProt O02824)", "pD2": 6.16}
{"compound": "CS(=O)(=O)Nc1ccc(Cl)c2c1CCCC2c1c[nH]cn1 (stereo unspecified)", "tgt": "Alpha-1A adrenergic receptor (Oryctolagus cuniculus) (UniProt O02824)", "pD2": 4.35}
{"compound": "Cc1ccc(NS(C)(=O)=O)c2c1C(c1c[nH]cn1)CCC2 (stereo unspecified)", "tgt": "Alpha-1A adrenergic receptor (Oryctolagus cuniculus) (UniProt O02824)", "pD2": 4.4}

* * *

tgt: Alpha-2B adrenergic receptor (Rattus norvegicus, UniProt P19328)
Sequence (P19328 whole entry): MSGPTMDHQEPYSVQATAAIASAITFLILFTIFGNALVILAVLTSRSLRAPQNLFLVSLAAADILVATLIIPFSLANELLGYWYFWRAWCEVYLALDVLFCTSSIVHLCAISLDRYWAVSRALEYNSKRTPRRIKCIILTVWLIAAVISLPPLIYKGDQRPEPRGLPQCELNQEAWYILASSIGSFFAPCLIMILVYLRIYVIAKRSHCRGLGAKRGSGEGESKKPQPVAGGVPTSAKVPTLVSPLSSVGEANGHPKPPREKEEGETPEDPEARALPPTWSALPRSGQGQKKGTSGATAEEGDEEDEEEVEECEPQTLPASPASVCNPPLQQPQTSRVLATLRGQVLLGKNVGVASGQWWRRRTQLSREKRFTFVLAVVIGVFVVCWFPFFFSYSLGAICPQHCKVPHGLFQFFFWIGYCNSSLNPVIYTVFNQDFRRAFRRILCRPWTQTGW
pKi: −log10 of the molar value.
Here the recorded pKi is given for each entry.

{"molecule": "CCS(=O)(=O)Nc1ccc2c(c1)C(c1c[nH]cn1)CCC2 (stereo unspecified)", "pKi": 7.65}
{"molecule": "O=C(Nc1cccc2c1CCCC2c1c[nH]cn1)C(F)(F)F (stereo unspecified)", "pKi": 6.18}
{"molecule": "CC(N)C(O)c1ccccc1 (stereo unspecified)", "pKi": 6.58}
{"molecule": "CCS(=O)(=O)Nc1cccc2c1CCCC2c1c[nH]cn1 (single isomer, unassigned; (+))", "pKi": 5.77}
{"molecule": "CCS(=O)(=O)Nc1cccc(Cc2c[nH]cn2)c1", "pKi": 6.01}
{"molecule": "CN(c1cccc2c1CCCC2c1c[nH]cn1)S(C)(=O)=O (stereo unspecified)", "pKi": 6.04}
{"molecule": "CS(=O)(=O)Nc1c(O)ccc2c1CCCC2c1c[nH]cn1 (stereo unspecified)", "pKi": 7.32}
{"molecule": "CS(=O)(=O)Nc1cccc2c1CCCC2c1c[nH]cn1 (stereo unspecified)", "pKi": 6.17}
{"molecule": "COc1ccc(OC)c(C(O)CN)c1 (stereo unspecified)", "pKi": 5.73}
{"molecule": "Oc1cccc2c1CCCC2c1c[nH]cn1 (stereo unspecified)", "pKi": 8.42}
{"molecule": "CCS(=O)(=O)Nc1cccc2c1CCC2c1c[nH]cn1 (stereo unspecified)", "pKi": 6.73}

* * *

tgt: Alpha-1D adrenergic receptor (Rattus norvegicus, UniProt P23944)
Sequence (P23944 whole entry): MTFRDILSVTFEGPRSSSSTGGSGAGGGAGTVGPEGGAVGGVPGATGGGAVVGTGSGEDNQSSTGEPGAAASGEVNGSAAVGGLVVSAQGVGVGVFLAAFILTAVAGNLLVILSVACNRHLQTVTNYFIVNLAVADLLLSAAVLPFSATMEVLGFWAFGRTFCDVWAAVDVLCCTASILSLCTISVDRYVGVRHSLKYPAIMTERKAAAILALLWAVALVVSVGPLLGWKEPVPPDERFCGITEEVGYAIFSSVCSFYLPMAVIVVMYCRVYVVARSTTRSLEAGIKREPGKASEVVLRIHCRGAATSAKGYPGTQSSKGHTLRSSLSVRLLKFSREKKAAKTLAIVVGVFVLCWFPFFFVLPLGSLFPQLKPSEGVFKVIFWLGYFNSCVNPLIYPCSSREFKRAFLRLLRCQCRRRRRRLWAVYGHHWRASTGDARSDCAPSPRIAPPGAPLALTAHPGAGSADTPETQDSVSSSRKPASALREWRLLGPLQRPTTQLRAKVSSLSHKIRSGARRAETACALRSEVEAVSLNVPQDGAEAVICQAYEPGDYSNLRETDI
pKi: −log10 of the molar value.

{"molecule": "CCS(=O)(=O)Nc1cccc(-c2c[nH]cn2)c1", "result-qualifier": "<", "pKi": 5.00}
{"molecule": "O=S(=O)(Nc1cccc2c1CCCC2c1c[nH]cn1)c1ccc2ccccc2c1 (centres undefined)", "result-qualifier": "=", "pKi": 7.00}
{"molecule": "COc1ccc(NS(C)(=O)=O)c2c1C(c1c[nH]cn1)CCC2 (centres undefined)", "result-qualifier": "<", "pKi": 5.00}
{"molecule": "CS(=O)(=O)Nc1ccc(O)c2c1CCCC2c1c[nH]cn1 (centres undefined)", "result-qualifier": "<", "pKi": 5.00}
{"molecule": "CCS(=O)(=O)Nc1cccc(Cc2c[nH]cn2)c1", "result-qualifier": "=", "pKi": 6.56}
{"molecule": "CCS(=O)(=O)Nc1cccc2c1CCCC2c1c[nH]c(C)n1 (centres undefined)", "result-qualifier": "<", "pKi": 5.00}
{"molecule": "O=S(=O)(Nc1cccc2c1CCCC2c1c[nH]cn1)C1CC1 (centres undefined)", "result-qualifier": "=", "pKi": 5.57}
{"molecule": "O=S(=O)(CC(F)(F)F)Nc1cccc2c1CCCC2c1c[nH]cn1 (single isomer, unassigned; (+))", "result-qualifier": "<", "pKi": 5.00}
{"molecule": "CC(C)S(=O)(=O)Nc1cccc2c1CCCC2c1c[nH]cn1 (centres undefined)", "result-qualifier": "=", "pKi": 5.69}

* * *

tgt: Alpha-1B adrenergic receptor (Rattus norvegicus) (UniProt P15823)
Sequence (P15823 whole entry): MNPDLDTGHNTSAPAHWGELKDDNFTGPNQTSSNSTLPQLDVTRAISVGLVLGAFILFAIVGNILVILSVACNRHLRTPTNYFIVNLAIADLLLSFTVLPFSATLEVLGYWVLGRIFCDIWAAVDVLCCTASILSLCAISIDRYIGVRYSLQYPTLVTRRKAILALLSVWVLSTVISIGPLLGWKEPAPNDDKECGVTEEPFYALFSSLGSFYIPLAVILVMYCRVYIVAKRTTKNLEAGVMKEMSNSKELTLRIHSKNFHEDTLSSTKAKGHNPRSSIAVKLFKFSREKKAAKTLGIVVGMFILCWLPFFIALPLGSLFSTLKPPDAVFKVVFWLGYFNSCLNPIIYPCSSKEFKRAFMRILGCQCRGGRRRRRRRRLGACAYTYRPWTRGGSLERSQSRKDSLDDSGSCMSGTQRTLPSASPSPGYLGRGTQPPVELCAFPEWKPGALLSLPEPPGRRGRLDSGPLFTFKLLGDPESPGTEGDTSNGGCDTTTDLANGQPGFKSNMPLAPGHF
assay-procedure: Efficacy relative to phenylephrine (PE) constriction of rat spleen containing alpha-1B adrenergic receptor
Format: functional, tissue-based
Here the recorded Efficacy is given for each entry.
measured-attribute: Efficacy (%)

{"compound": "CS(=O)(=O)Nc1c(O)ccc2c1CCCC2c1c[nH]cn1 (configuration not stated)", "unit-symbol": "%", "readout-value": 94}
{"compound": "CC(=O)Nc1cccc2c1CCCC2c1c[nH]cn1 (configuration not stated)", "unit-symbol": "%", "readout-value": 35}
{"compound": "CC(N)C(O)c1ccccc1 (configuration not stated) [PHENYLPROPANOLAMINE]", "unit-symbol": "%", "readout-value": 34}
{"compound": "COc1ccc(OC)c(C(O)CN)c1 (configuration not stated) [DESGLYMIDODRINE]", "unit-symbol": "%", "readout-value": 68}
{"compound": "COc1ccc(NS(C)(=O)=O)c2c1C(c1c[nH]cn1)CCC2 (configuration not stated)", "unit-symbol": "%", "readout-value": 26}
{"compound": "O=C(Nc1cccc2c1CCCC2c1c[nH]cn1)C(F)(F)F (configuration not stated)", "unit-symbol": "%", "readout-value": 19}
{"compound": "CS(=O)(=O)Nc1cccc2c1OCCC2c1c[nH]cn1 (configuration not stated)", "unit-symbol": "%", "readout-value": 17}

* * *

tgt: Alpha adrenergic receptor 1A and 1D (Rattus norvegicus) (UniProt P23944+P43140)
assay-procedure: Selectivity is ratio of pKi (binding affinity) of Alpha-1D to that of alpha1A
Assay type: protein assay
Here the recorded Selectivity is given for each entry.
measured-attribute: Selectivity

{"molecule": "CCS(=O)(=O)Nc1cc(Cl)cc2c1CCCC2c1c[nH]cn1 (configuration not stated)", "tgt": "Alpha adrenergic receptor 1A and 1D (Rattus norvegicus) (UniProt P23944+P43140)", "readout-value": 8}
{"molecule": "CCS(=O)(=O)Nc1cccc2c1COC2c1c[nH]cn1 (configuration not stated)", "tgt": "Alpha adrenergic receptor 1A and 1D (Rattus norvegicus) (UniProt P23944+P43140)", "readout-value": 10}
{"molecule": "CS(=O)(=O)Nc1cccc2c1CCCC2C1=NCCN1 (configuration not stated)", "tgt": "Alpha adrenergic receptor 1A and 1D (Rattus norvegicus) (UniProt P23944+P43140)", "readout-value": 9}
{"molecule": "COC(=O)Nc1cccc2c1CCCC2c1c[nH]cn1 (configuration not stated)", "tgt": "Alpha adrenergic receptor 1A and 1D (Rattus norvegicus) (UniProt P23944+P43140)", "readout-value": 30}
{"molecule": "CS(=O)(=O)Nc1ccc(O)c2c1CCCC2c1c[nH]cn1 (configuration not stated)", "tgt": "Alpha adrenergic receptor 1A and 1D (Rattus norvegicus) (UniProt P23944+P43140)", "readout-value": "> 14"}
{"molecule": "O=S(=O)(CC(F)(F)F)Nc1cccc2c1CCCC2c1c[nH]cn1 (single isomer, unassigned; (+))", "tgt": "Alpha adrenergic receptor 1A and 1D (Rattus norvegicus) (UniProt P23944+P43140)", "readout-value": "> 80"}
{"molecule": "CCS(=O)(=O)Nc1cccc(CC2CCCN2)c1 (configuration not stated)", "tgt": "Alpha adrenergic receptor 1A and 1D (Rattus norvegicus) (UniProt P23944+P43140)", "readout-value": 1}
{"molecule": "CCS(=O)(=O)Nc1cccc(Cc2c[nH]cn2)c1C", "tgt": "Alpha adrenergic receptor 1A and 1D (Rattus norvegicus) (UniProt P23944+P43140)", "readout-value": 8}
{"molecule": "CC(N)C(O)c1ccccc1 (configuration not stated) [PHENYLPROPANOLAMINE]", "tgt": "Alpha adrenergic receptor 1A and 1D (Rattus norvegicus) (UniProt P23944+P43140)", "readout-value": 1}
{"molecule": "CS(=O)(=O)Nc1ccc(F)c2c1CCCC2c1c[nH]cn1 (configuration not stated)", "tgt": "Alpha adrenergic receptor 1A and 1D (Rattus norvegicus) (UniProt P23944+P43140)", "readout-value": 10}
{"molecule": "CN(c1cccc2c1CCCC2c1c[nH]cn1)S(C)(=O)=O (configuration not stated)", "tgt": "Alpha adrenergic receptor 1A and 1D (Rattus norvegicus) (UniProt P23944+P43140)", "readout-value": 3}
{"molecule": "Oc1cccc2c1CCCC2c1c[nH]cn1 (configuration not stated)", "tgt": "Alpha adrenergic receptor 1A and 1D (Rattus norvegicus) (UniProt P23944+P43140)", "readout-value": 1}
